// data source = paper PMC8160210

measured_target: Y160W PNP mutant (Escherichia coli, UniProt P0ABP8, Y161W)
Sequence (P0ABP8 2-239 Y161W): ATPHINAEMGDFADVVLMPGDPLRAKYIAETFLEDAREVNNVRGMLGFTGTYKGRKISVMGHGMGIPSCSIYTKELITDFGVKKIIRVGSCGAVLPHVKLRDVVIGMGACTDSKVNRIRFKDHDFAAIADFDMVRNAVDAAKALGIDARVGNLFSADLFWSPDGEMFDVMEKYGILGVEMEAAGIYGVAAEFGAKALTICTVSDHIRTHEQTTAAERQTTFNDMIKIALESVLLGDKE
assay_notes: Near-UV CD titrations
Assay type: binding, E. coli
Parameters: made in house; host or cells: E. coli DH5α-T1
setup_conditions: CD titrations with phosphate, three-binding-site model, 25 °C, 50 mM Tris/HCl pH 7.6, read-out: Kd3 ± SD
endpoint_name: pKd
# reply with the number alone; pKd is -log10 of concentration in mol/L

Task: // lookup pKd for O=P(O)(O)O [Pi, Orthophosphate]
Result: 2.63

* * *

measured_target: WT E. coli PNP (Escherichia coli, UniProt P0ABP8)
Construct: made in house
Sequence (P0ABP8 2-239 limits assumed): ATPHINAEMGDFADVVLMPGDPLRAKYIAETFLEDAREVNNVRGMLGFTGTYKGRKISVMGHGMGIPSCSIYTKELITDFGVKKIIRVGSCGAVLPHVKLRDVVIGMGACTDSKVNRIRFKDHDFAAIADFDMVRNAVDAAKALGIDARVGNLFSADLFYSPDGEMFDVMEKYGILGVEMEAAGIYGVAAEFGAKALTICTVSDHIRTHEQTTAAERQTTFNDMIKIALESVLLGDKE
assay_notes: Thermophoretic (MST) titrations with phosphate
setup_conditions: two-binding-site model, 25 °C, 50 mM Tris/HCl pH 7.6, read-out: Kd3 ± SD
endpoint_name: pKd
On this scale, pKd is minus log10 of a concentration expressed in M (mol/L).

Task: Look up pKd for this compound: O=P(O)(O)O [Pi, Orthophosphate]
Result: 2.79

* * *

measured_target: Y160W PNP mutant (Escherichia coli, UniProt P0ABP8, Y161W)
assay_notes: Inhibition of m^7Guo phosphorolysis
endpoint_name: pKi
# pKi = -log10(concentration in molar units)

Task: Value lookup for pKi; key = Nc1ncnc2c([C@@H]3O[C@H](CO)[C@@H](O)[C@H]3O)[nH]nc12
Result: 4.38
